Cited source: the supplement of paper PMC9170038

Test system: MS2 coat protein
Assay: apparent KD of MS2 coat protein; designed switch direction (-1 OFF switch, 1 ON switch): -1; higher = weaker reporter binding
Conditions: Eterna round: R95; input ligand: none
metric.name: apparent KD of MS2 coat protein (nM)

UCAUACGAUGAGGAUAUCUCAGUUAAAGUAUUUAGAGAAGGCGUUACAUGAGGAUCACCCAUGUUUAUGGGCAU [Ex-6 Malc#7] (puzzle: Exclusion 6) : 190
GUUAAACAUGAGGAUCACCCAUGUAAGGAUAUGCUGAGGUAGAGAUGAAGUGAAUGAAGCAGAAGGUACAAAUG [Mat - Mod of JL D64] (puzzle: Exclusion 1) : 113
UCAUAACAUGAGGAUCACCCAUGUGAGGAUAUGAUACUAUGUACUUCGGUACAUAGUAUCAGAAGGCGCAUACU [Brourd's Ex1-3: 11 (nt 68 G)] (puzzle: Exclusion 1) : 49.1
UUAUUUAGUGUGAGGAUAUGCUGGUCGAUAGAUCAGCAGAAGGCACAUGAGGAUCACCCAUGUAAUAUAUUAAU [Mat - Exclusion 4 - JL Mod - D33] (puzzle: Brourd's mod of Exclusion 4) : 72.7
AAAAGUCCGGAGGAUAUCCACAAGCUCGGGAAAGGAGAAGGCCGGACAUGAGGAUCACCCAUGUGUCUUCUUGC [Rebila] (puzzle: Exclusion 6) : 94.5
CUGAGGUAGCGGUCCUAUGACAUGAGGAUCACCCAUGUACCUUGCUUUGAGCUAAUUGCUCGUCUUAUGAUUCUCGG [Mat - Sensor v3 - turn-off var 1 - JL Mod - D45] (puzzle: Sensor v3, turn-off variant 1) : 479
GUGAGACAUGAGGAUCACCCAUGUGAGGAUAUCCGAAGGACCAAAUUAAGAAUAGAAGGGAGAAGGCACAUAAA [Exclusion 1 V6] (puzzle: Exclusion 1) : 157
GAUUGACAUGAGGAUCACCCAUGUGAGGAUAUCGGCUGGACCGUGUUGGCUUGCUUCUCGAGAAGGCGCAUAGG [Exclusion 1 V51] (puzzle: Exclusion 1) : 36
UAUUAGCAAGUAAGGUCCCACAUGAGGAUCACCCAUGUGCUCGUCUUAUAAGGUACUGUGACGAAAGUCACGGUACC [Sensor 3, v1 - 95] (puzzle: Sensor v3, turn-off variant 1) : 18.1
UAGGUGCAAGGAUAUCGCCCGGAAGACAUGAGGAUCACCCAUGUACCGGGUGAGUAUGGGCGAGAAGGUGCAUAUU [Usergete] (puzzle: Exclusion 5) : 92
GCGAAAACAAGCAAGUGAAACAUGAGGAUCACCCAUGUCCUCAUUUGCUCGUCUUAUAAAAGCUAUCGAAAGAUAGC [Mat - Sensor v3 - turn-off var 1 - Eli Mod - D49] (puzzle: Sensor v3, turn-off variant 1) : 9.78
AUAAGCUUUGAGAUCCUUAACAUGAGGAUCACCCAUGUUCGUCUUAUGAUGGUCUGAUCCCUGAGGAUCGGACCGUG [Mat - Sensor v3 - turn-off var 1 - JL Mod - D2] (puzzle: Sensor v3, turn-off variant 1) : 380
CUGGUCCGAGGAUAUAUUAAGUGAUACAUGAGGAUCACCCAUGUAAUUUGAUGGAUAUAAAUAGAAGGCGGACUAG [Mat - Exclusion 5 - JL mod - D43] (puzzle: Exclusion 5) : 43.8
UAUUAGAGAGGAUAUAUGAUGUGAAACAUGAGGAUCACCCAUGUAAUAUUAUGGAUGUAAAUAGAAGGCUCAUUUA [Mat - Exclusion 5 - JL mod - D15] (puzzle: Exclusion 5) : 80.2
GAUUGACAUGAGGAUCACCCAUGUGAGGAUAUCGGCUGGACCGUGUUGGCGUGCCUCUCGAGAAGGCGCAUAGG [Exclusion 1 V54] (puzzle: Exclusion 1) : 51.3
AGAAGUAGAAACCGAUCCUACAUGAGGAUCACCCAUGUAGCAAGACGUGCACGCGAAGCUCGUCAGACUACCAGAAA [salish99_TOv1_r3_005] (puzzle: Sensor v3, turn-off variant 1) : 337
AGGUAACAUGAGGAUCACCCAUGUCAGGAUAUCAGUAAGAGGAGGAUAGAAUAGAGUAUGAGAAGGGACUAUAU [Excluse me! 23 - Jieux - Exclusion 1] (puzzle: Exclusion 1) : 47.8
AAAUACAAGUAAAGAUCUUACAUGAGGAUCACCCAUGUGCUCGUCUUAUAAAGUACUAUCACGAAAGUGAUAGUACA [Sensor 3, v1 - 25] (puzzle: Sensor v3, turn-off variant 1) : 18.4
AUCCUGUCAGGAUAUCUAGUUAAAUACAUGAGGAUCACCCAUGUCACUGGGCCGUCCUUAAGAGAAGGGACAGGCG [Edabe] (puzzle: Exclusion 5) : 39.7
AGUAGAUCUACGCUUGCGUGGAUCUGCAAUGCAGGUGUUACAUGAGGAUCACCCAUGUCCUCGUUUGCUCGUCUUAG [JL turnoff v2 99.11] (puzzle: Sensor v3, turn-off variant 2) : 133
